Tested on: HCT-15 colon
Assay: NCI tumour cell line growth inhibition, 48 h; in the data active means GI50 below about 0.43 µM; inactive means the rest
# output must be one of yes (1) (active), no (0) (inactive)

Data request: Write down the call the test reported for this molecule. Item: COc1cccc(/C=N\NC(=O)c2ccncc2)c1O
Data returned: no (0)

Data request: Write down the call the test reported for this molecule. Item: COc1cc(-n2cc(-c3ccc(Cl)cc3)n(-c3ccccc3)c2=O)cc(OC)c1OC
Data returned: no (0)

Data request: Write down the call the test reported for this molecule. Item: CC[C@@]1(O)CC(OC2CC(N3CCOCC3)C(O)C(C)O2)c2c(O)c3c(c(O)c2[C@H]1O)C(=O)c1cccc(O)c1C3=O (stereo partly drawn)
Data returned: yes (1)

Data request: Write down the call the test reported for this molecule. Item: COc1cc2c(c(OC)c1OC)-c1ccc(SC)c(=O)cc1[C@@H](NC(=O)c1cccc([N+](=O)[O-])c1)CC2
Data returned: yes (1)

Data request: Write down the call the test reported for this molecule. Item: ClCc1ccccc1Cn1cnc2nc(Cl)nc(Cl)c21
Data returned: yes (1)

Data request: Write down the call the test reported for this molecule. Item: CCCCCN(CCCCC)CCC[C@@H](C)[C@H]1CC[C@H]2[C@@H]3[C@H](OCCCN)C[C@@H]4C[C@H](OCCCN)CC[C@]4(C)[C@H]3C[C@H](OCCCN)[C@]12C
Data returned: no (0)

Data request: Write down the call the test reported for this molecule. Item: COc1cc2c(cc1OC)[C@@H]1C(=O)c3ccc4c(c3O[C@@H]1CO2)C[C@H](C(C)C)O4
Data returned: no (0)

Data request: Write down the call the test reported for this molecule. Item: O=C1OC2(c3ccc(O)cc3Oc3cc(O)ccc32)c2cccc3cccc1c23
Data returned: no (0)

---

Test system: UACC-62 melanoma
Assay: NCI tumour cell line growth inhibition, 48 h
Answer each item with its documented TGI.
Kindly answer with a numeric value in µM, unit omitted.

Data request: TGI for O=C1OC2(c3ccc(O)cc3Oc3cc(O)ccc32)c2cccc3cccc1c23 ?
Data returned: 42.5

Data request: TGI for Cn1cnc([N+](=O)[O-])c1Sc1n[nH]c(-c2ccc(Cl)cc2)n1 ?
Data returned: 28.4

Data request: TGI for CCCCN(CCCC)P(=O)(Oc1ccccc1)Oc1ccccc1 ?
Data returned: 25.7

Data request: TGI for c1cc[c]([Ge]([O]c2cccc3cccnc23)([c]2ccccc2)[c]2ccccc2)cc1 ?
Data returned: 16.4

Data request: TGI for COc1cc(OC)c(C(=O)/C=C/c2ccc(C#N)cc2)c(OC)c1 ?
Data returned: 5.78

---

System: COLO 205 colon
Assay: NCI tumour cell line growth inhibition, 48 h
quantity.measured: TGI

Data request: TGI for CC(=O)C1C(=O)C(=O)N(c2ccc([N+](=O)[O-])cc2[N+](=O)[O-])C1=O (stereo not given) ?
Data returned: > 100 µM

Data request: TGI for CCn1nc(C2CCN(C(=O)CCO)CC2)nc1-c1cnc(N)c(-c2nnc(C(C)(C)C)o2)n1 ?
Data returned: 21.5 µM

Data request: TGI for Cc1cccc(N=Nc2c(C)nn(C(=O)CC(=O)Nc3ccc(Cl)cc3)c2C)c1 ?
Data returned: > 100 µM

Data request: TGI for CC1(O)CC2C(CC1SC1CC3C(CC1(C)O)C3(C)C)C2(C)C (stereo not given) ?
Data returned: > 100 µM

Data request: TGI for CC1(C)C(=O)/C=C\C(=O)C(C)(C)C2=CC=C(O2)C(C)(C)C(=O)C(Br)C(Br)C(=O)C(C)(C)C2=CC=C1O2 (stereo not given) ?
Data returned: > 100 µM

Data request: TGI for COc1cc2c(/C=C3\C(=O)N(C)c4ccccc43)c[nH]c2cc1C ?
Data returned: > 100 µM

Data request: TGI for CCOC(=O)C1CC(=O)C=C2CCCCC21 (stereo not given) ?
Data returned: > 100 µM

Data request: TGI for CC(C)CNC1=NCC(C)S1 (stereo not given) ?
Data returned: > 100 µM

Data request: TGI for CN1CCc2ccccc2C1Cc1ccccc1NC(=O)c1sc2ccccc2c1Cl (stereo not given) ?
Data returned: > 100 µM

Data request: TGI for Cc1c(-c2ccccc2)c(C#N)c2nnn(-c3ccc(Cl)cc3)c(=O)n12 ?
Data returned: 42.3 µM
